- TARGET OF ASSAY: Large T antigen (Simian virus 40) (UniProt P03070)
- Sequence (P03070 whole entry, looked up): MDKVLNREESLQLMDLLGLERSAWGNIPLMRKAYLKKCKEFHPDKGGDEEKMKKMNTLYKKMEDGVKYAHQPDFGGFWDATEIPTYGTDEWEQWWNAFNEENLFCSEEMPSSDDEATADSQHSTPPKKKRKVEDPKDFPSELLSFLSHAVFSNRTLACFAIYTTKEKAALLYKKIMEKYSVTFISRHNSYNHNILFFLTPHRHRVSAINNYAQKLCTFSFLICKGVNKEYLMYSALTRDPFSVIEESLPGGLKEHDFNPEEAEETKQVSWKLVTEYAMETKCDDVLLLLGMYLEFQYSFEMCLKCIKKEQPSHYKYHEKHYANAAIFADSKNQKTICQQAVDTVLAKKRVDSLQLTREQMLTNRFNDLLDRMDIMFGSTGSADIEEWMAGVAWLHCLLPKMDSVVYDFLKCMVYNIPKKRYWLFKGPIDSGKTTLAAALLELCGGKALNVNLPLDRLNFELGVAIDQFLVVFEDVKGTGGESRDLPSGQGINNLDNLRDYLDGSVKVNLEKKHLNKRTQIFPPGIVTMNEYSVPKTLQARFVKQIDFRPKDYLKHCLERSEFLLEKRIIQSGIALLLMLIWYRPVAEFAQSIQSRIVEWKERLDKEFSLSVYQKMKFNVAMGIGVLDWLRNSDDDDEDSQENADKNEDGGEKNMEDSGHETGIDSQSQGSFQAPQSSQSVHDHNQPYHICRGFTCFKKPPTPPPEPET
- TEST NAME: SV40 large T antigen inhibitors, biochemical (AID 1903)
- CONDITION NOTES: SV40 large T antigen ATPase/helicase inhibition assay; at 20 µM; hits give high values
Among all 310,000 compounds or so, about 1,200 (0.39%) were called active. Not all results are given here. Measured potencies and affinities stand elsewhere.
OUTCOME MEASURE: inhibition (%)

- CN(CC(=O)Nc1ccc(F)cc1)C(=O)COC(=O)Cc1cccs1: 8.61
- CCOC(=O)c1ccc(NC2c3ccccc3C(=O)N2c2ccccn2)cc1 (stereo not given): 0.465
- C=CCc1cccc(CNc2nc3ccccc3n2CCN2CCOCC2)c1O: -5.32
- Cc1ccc(CNC(=O)COC(=O)c2cc3c(s2)CCC(C)C3)cc1 (stereo not given): 0.58
- O=C(O)c1ccc(NC(=S)NC(=O)c2cncc(Br)c2)cc1: 13.1
- CCOc1ccccc1NC(=O)C1CC2CCCC(C1)C2=O (stereo not given): 14.6
- Cc1cc(=O)nc2c3ccccc3n(CC(=O)NCCC3=CCCCC3)n12: 2.66
- CN1CCN(/N=C/c2c3ccccc3c(Cl)c3ccccc23)CC1: 1.67
- CCc1nnc(NS(=O)(=O)c2ccc(NC(=O)c3cc4ccccc4oc3=O)cc2)s1: -3.35
- COc1ccccc1CC(=O)Nc1ccc(-c2nnc(-c3ccco3)o2)cc1: 5.22
- COc1ccc(NC(=O)Nc2ccc(O)c3ccccc23)cc1: 27.9
- O=C1NC(=S)N/C1=C/c1ccc2c(c1)OCO2: 11.6
- COc1ccccc1C(NC(C)=O)c1cc(Cl)c2cccnc2c1O (stereo not given): 3.72
- COc1ccc(NC(=S)NC(=O)c2ccccc2Cl)cc1: 9.58
- O=C(Nc1ccccc1)c1cccc(S(=O)(=O)N2CCCCC2)c1: 1.37
- Brc1c(CSc2nncn2-c2ccccc2)nc2sccn12: 3.07
- CC(C)C[C@H](NC(=O)Nc1cccc(Cl)c1)C(=O)O: 10.3
- O=C(CSc1cccc2cccnc12)N/N=C/c1cccc(O)c1: 3.2
- O=C(CSc1cccc2cccnc12)N/N=C/c1ccncc1: 13.8
- COc1ccc(-n2c(=O)c3c4c(sc3n3c(=S)[nH]nc23)CCCC4)cc1: 2.8
- O=C(NCC1CC1)[C@]1(C(F)(F)F)C[C@H](CCC2CCCCC2)CCCO1: 2.31
- COc1ccc(C(=O)Nc2cccc3ccccc23)cc1: 16.2
- COc1cc(NC(=O)C2CCCN(S(=O)(=O)c3ccc4c(c3)oc(=O)n4C)C2)cc(OC)c1 (stereo not given): 1.24
- CSc1nnc2n(-c3ccccc3)c(=O)c3c4c(sc3n12)CCC4: 3.42
- O=C(COc1cccc2cccnc12)N/N=C/c1ccccc1O: 0.79
- COc1ccc(/C=N/NC(=O)COc2cccc3cccnc23)cc1OC: 16.2
- C=CCN(c1ccccc1)S(=O)(=O)c1cccc(C(=O)NNC(=O)c2ccccc2O)c1: 7.21
- CN1CCN(CC(=O)N/N=C\c2c[nH]c3ccccc23)CC1: 5.96
- CCc1nnc(NS(=O)(=O)c2ccc(NC(=O)c3cccc4ccccc34)cc2)s1: 11.1
- Cc1cccc(OCC(=O)NNC(=O)CCc2ccccc2)c1: 15.5
- COCCN(CCOC)S(=O)(=O)c1ccc(C(=O)NC2CCN(Cc3ccccc3)CC2)cc1: 4.79
- Cc1c(/C=N/NC(=O)c2cccs2)c2ccccc2n1Cc1ccccc1Cl: 14.4
- COc1cccc(C=Nc2ccc3c(c2)OCCO3)c1O: 21.9
- Cc1cccc(NC(=O)c2ccc(N3CCOCC3)c([N+](=O)[O-])c2)n1: -1.72
- COc1ccc(C(CNC(=O)COc2ccc(F)cc2Br)N2CCCC2)cc1 (stereo not given): 5.54
- CC(C)OC(=O)/C(=C/c1ccc2c(c1)c1ccccc1n2C)NC(=O)c1ccccc1: 3.18
- COc1ccc(C(=O)Nc2ccc(NC(=O)C3CC3)cn2)cc1: 10.7
- O=C(NC1CC1)C1=C[C@@H](c2ccccc2)C[C@@H](OCCCCO)O1: 5.56
- CC(=O)NCCCc1nc2ccccc2n1Cc1cc(C)ccc1C: 2.29
- O=C(CCS(=O)(=O)c1cccs1)Nc1ccc(C(=O)NC2CCN(Cc3ccccc3)CC2)cc1: 16.1
- NNC(=O)c1ccc(CSc2cccc3cccnc23)cc1: 8.28
- O=C(NC(=S)Nc1ccc(Cl)cc1)c1cncc(Br)c1: 10.2
- O=C(/C=C/c1cccc(Cl)c1)NCc1cccs1: -0.755
- O=C(CCc1nnc2ccc(NCc3ccco3)nn12)Nc1ccccc1F: 14.6
- NC(=O)c1ccc(NC(=O)CSc2cn(CC(=O)N3CCOCC3)c3ccccc23)cc1: 2.11

* * *

- TARGET OF ASSAY: Large T antigen (Simian virus 40)
- TEST NAME: SV40 large T antigen inhibitors, biochemical (AID 1903)
- CONDITION NOTES: SV40 large T antigen ATPase/helicase inhibition assay; at 20 µM; hits give high values
Hit rate of the full screen: of about 310,000 compounds, about 1,200 (0.39%) were called active. Only a sample is shown. Potency and affinity values are given separately.
Think of 10% as a floor: if inhibition stands on it or above, it is 1 (yes); beneath it, 0 (no).

* CCOC(=O)C1Nc2c(F)cc(C)cc2C2C=CCC12 (stereo unspecified) | 1 (yes)
* O=C(c1ccc2ncsc2c1)N1CCN(c2ccccc2Cl)CC1 | 1 (yes)
* COc1ccc(/C=N/N2C(=O)CSC2=S)cc1Br | 1 (yes)
* O=[N+]([O-])c1ccc(-n2cccc2/C=N/Nc2nc(N3CCCCC3)nc(N3CCCCC3)n2)cc1 | 0 (no)
* O=C(O)C1Nc2c(C(F)(F)F)ccc(Cl)c2C2C=CCC12 (stereo unspecified) | 1 (yes)
* CCN=c1scc(C)n1/N=C/c1ccsc1 | 1 (yes)
* O=C(c1ccc2ccccc2c1)N1CCN(c2ccccc2)CC1 | 1 (yes)
* CCOC(=O)C1Nc2ccc(Br)cc2C2C=CCC12 (stereo unspecified) | 0 (no)
* COc1cc(/C=N/Nc2cccc(C)c2)cc(Br)c1O | 1 (yes)

* * *

- TARGET OF ASSAY: Large T antigen (Simian virus 40) (UniProt P03070)
- TEST NAME: SV40 large T antigen inhibitors, biochemical (AID 1903)
- CONDITION NOTES: SV40 large T antigen ATPase/helicase inhibition assay; at 20 µM; hits give high values
Screen size: about 310,000 compounds; about 1,200 (0.39%) were called active. Only a sample is shown. Measured potencies and affinities stand elsewhere.
Known inhibition of a selection of compounds
OUTCOME MEASURE: inhibition (%)

- C#CCOCCOCCOCCNc1nc(N2CCN(C(=O)CCCCCCCCCCNC(=O)[C@H](CCCCN)n3cc(CCO)nn3)CC2)nc(N2CCN(C(=O)CCCCCCCCCCNC(=O)[C@H](CCCN=C(N)N)n3cc(C[C@@H](C)CC)nn3)CC2)n1: 30.2
- C#CCOCCOCCOCCNc1nc(N2CCN(C(=O)CCCCCCCCCCNC(=O)[C@H](CCCCN)n3cc(C[C@@H](C)CC)nn3)CC2)nc(N2CCN(C(=O)CCCCCCCCCCNC(=O)[C@H](CCCN=C(N)N)n3cc(C[C@@H](C)CC)nn3)CC2)n1: 35.8
- C#CCOCCOCCOCCNc1nc(N2CCN(C(=O)CCCCCCCCCCNC(=O)[C@H](CO)n3cc(CCCCCN)nn3)CC2)nc(N2CCN(C(=O)CCCCCCCCCCNC(=O)[C@H](CCCN=C(N)N)n3cc(C[C@@H](C)CC)nn3)CC2)n1: 36.3
- C#CCOCCOCCOCCNc1nc(N2CCN(C(=O)CCCCCCCCCCNC(=O)[C@H](CCCCN)n3cc(CCO)nn3)CC2)nc(N2CCN(C(=O)CCCCCCCCCCNC(=O)[C@H](CCCCN)n3cc(C[C@@H](C)CC)nn3)CC2)n1: 22.1
- O=C(CSc1n[nH]c(=O)n1Cc1ccco1)Nc1ccccc1Cl: 12.1
- COc1ccc(NC2CCCN(C(=O)c3ccncc3)C2)cc1 (stereo unspecified): 51.8

* * *

- TARGET OF ASSAY: Large T antigen (Simian virus 40)
- TEST NAME: SV40 large T antigen inhibitors, biochemical (AID 1903)
- CONDITION NOTES: SV40 large T antigen ATPase/helicase inhibition assay; at 20 µM; hits give high values
The whole screen tested about 310,000 compounds, of which about 1,200 (0.39%) were called active. A selection follows. Entries with a potency or affinity are not part of this list.
Known inhibition of a selection of compounds
OUTCOME MEASURE: inhibition (%)

• CC(C)(C)c1ccc(/C=C2\SC(=O)N=C2N)cc1 = 5.32
• CCc1nnc(NC(=O)CSc2nnc(Cc3cc(=O)[nH]c(=O)[nH]3)n2-c2ccc(OC)cc2)s1 = 3.92
• COC(=O)CN1C(=O)C(C)(C)Oc2ccc(C(=O)Nc3ccccc3F)cc21 = -0.69
• Oc1c(Br)cc(/C=N/n2c(-c3ccccc3)n[nH]c2=S)c(O)c1Br = 30.1
• O=C(COC(=O)CCC(NC(=O)OCc1ccccc1)C(=O)OCC(=O)Nc1ccccc1)Nc1ccccc1 (stereo not given) = 9.57
• CCOc1cc2[nH]c(=O)n(Cc3ccccc3)c(=O)c2cc1OCC = 3.82
• Cc1ccc([C@@H]2[C@@H]3C(=O)N(C)C(=O)[C@@H]3[C@]3(C)C(=O)N(Cc4ccccn4)CC(=O)N23)o1 = 21.8
• Oc1c(Br)cc(/C=N/n2c(-c3ccccc3)n[nH]c2=S)cc1Br = 29.7
• COc1ccc(C2NC(c3ccc(OC)c(OC)c3OC)C(C)C(=O)C2C)c(OC)c1OC (stereo not given) = -0.23
• CC(C)Oc1ccc(Br)cc1/C=N\NC(N)=S = 16

These measurements were taken from PubChem BioAssay AID1903.
